TGI for assorted compounds
system: HOP-92 NSCLC; experiment: NCI tumour cell line growth inhibition, 48 h

Bench note: what TGI did O=C(NCCCNCCCNC(=O)c1cc(-c2ccccc2)nc2ccccc12)c1cc(-c2ccccc2)nc2ccccc12 show?
4.17 µM

Again, but for C=CCCN1CCc2c([nH]c3ccccc23)C1C(=O)O (stereo not given)
> 100 µM

And the next one, N#C/C(=C1C=C(Br)/C(=N\O)C=C\1Cl)c1cccc2ccccc12 ?
21.9 µM

One more compound: Cc1ccn2c(c1)nc1nc3ccccc3nc12
> 100 µM

Then NS(=O)(=O)c1ccc(N=Nc2c(O)[nH]c3ccc(-c4cnco4)cc23)cc1 ?
> 25 µM

# repeat for COc1cc(/C=C/c2cc(/C=C/c3ccc(O)c(OC)c3)n(C(=O)Nc3ccc(F)c(Cl)c3)n2)ccc1O
5.89 µM

====

Quick note: these are GI50 numbers for system: NCI-H460 lung

>  <structure_smiles_string>
CC(=O)/C(C)=N/NC(=O)c1ccccc1O

>  <GI50>
> 100 µM

$$$$
>  <structure_smiles_string>
C[C@@]12CC=C3c4nc(Nc5cccc(O)c5)sc4CC[C@]3(C)[C@H]1CC[C@]1(C)C(=O)CC[C@@H]21

>  <GI50>
2.66 µM

$$$$

Next, consider the following compound.
Need GI50, item Clc1ccc(C2=Nn3c(COc4ccccc4Cl)nnc3SC2)c(Cl)c1
24.2 µM

====

system: SNB-19 CNS; test: NCI tumour cell line growth inhibition, 48 h
Here the recorded TGI is given for each entry.

Please give the measured TGI for this compound: O=C1OC(c2ccccc2)=N/C1=C\c1cccc2ccccc12
> 100 µM

And O=C(N/N=C/c1ccccc1)c1c(-c2cccnc2)cnc2ccccc12 ?
> 100 µM

Okay, and COC(CNC(=O)C(C)NC(=O)CCc1ccccc1)OC (stereo not given) ?
> 100 µM

====

This section presents compounds with their documented TGI values.
system: HOP-62 NSCLC; experiment: NCI tumour cell line growth inhibition, 48 h

For orientation, consider the following solved cases.
>  <compound>
NS(=O)(=O)c1ccc(N=Nc2c(O)[nH]c3ccc(-c4cnco4)cc23)cc1

>  <result>
> 25 µM

$$$$
>  <compound>
COc1ccc(C2OC[C@H]3O[C@@H](OCc4ccccc4)[C@H](O)[C@@H](O)[C@@H]3O2)cc1 (stereo not given in full)

>  <result>
> 100 µM

$$$$
>  <compound>
CCOC(=O)c1cc(C(O)P2(=O)N(CC(C)(C)C)[C@@H]3CCCC[C@H]3N2CC(C)(C)C)cn1C(=O)OC(C)(C)C (stereo not given in full)

>  <result>
28.1 µM

$$$$
>  <compound>
CC(=O)OC(/C=C/c1ccccc1)=C(OC(C)C)/C1=C(\c2ccccc2)SCCCSC1=O

>  <result>
> 100 µM

$$$$
>  <compound>
COc1ccc(Nc2c3ccccc3nc3occc23)cc1

>  <result>
30.1 µM

$$$$

Now let's try a different one.
Form field - read-out: TGI; system: HOP-62 NSCLC; submitted item: O=C1C(CN2CCCCC2)CCC1CN1CCCCC1 (stereo not given)
> 100 µM

====

Collected TGI values appear next to each entry.
tested on: XF 498 CNS; assay: NCI tumour cell line growth inhibition, 48 h

>  <compound>
Cc1nc(N)sc1C(=O)/C=C\c1ccc2c(c1)OCO2

>  <measured_target>
XF 498 CNS

>  <result>
> 100 µM

$$$$
>  <compound>
CCOC(=O)CC1(C(=O)OCC)c2[nH]c3ccccc3c2CCN1Cc1ccccc1 (stereo unspecified)

>  <measured_target>
XF 498 CNS

>  <result>
41.4 µM

$$$$
>  <compound>
Cc1ccn2c(c1)nc1nc3ccccc3nc12

>  <measured_target>
XF 498 CNS

>  <result>
> 100 µM

$$$$
>  <compound>
O=C1OC(c2ccccc2)=N/C1=C\c1cccc2ccccc12

>  <measured_target>
XF 498 CNS

>  <result>
> 100 µM

$$$$
>  <compound>
N#CC(NC12CC3CC(CC(C3)C1)C2)c1ccccc1C(F)(F)F (stereo unspecified)

>  <measured_target>
XF 498 CNS

>  <result>
> 100 µM

$$$$

Item CC1CC[C@]2(C(=O)O)CCC3(C)C(=CC(=O)C4[C@@]5(C)CCC(=O)C(C)(C)C5CC[C@]43C)[C@@H]2[C@H]1C (stereo partly specified) with XF 498 CNS - TGI?
29.5 µM
